Molecular target: delta opioid receptor (Rattus norvegicus, UniProt P33533)
Construct: from tissue; host or cells: forebrain of male Wistar rats
Sequence (P33533 whole entry): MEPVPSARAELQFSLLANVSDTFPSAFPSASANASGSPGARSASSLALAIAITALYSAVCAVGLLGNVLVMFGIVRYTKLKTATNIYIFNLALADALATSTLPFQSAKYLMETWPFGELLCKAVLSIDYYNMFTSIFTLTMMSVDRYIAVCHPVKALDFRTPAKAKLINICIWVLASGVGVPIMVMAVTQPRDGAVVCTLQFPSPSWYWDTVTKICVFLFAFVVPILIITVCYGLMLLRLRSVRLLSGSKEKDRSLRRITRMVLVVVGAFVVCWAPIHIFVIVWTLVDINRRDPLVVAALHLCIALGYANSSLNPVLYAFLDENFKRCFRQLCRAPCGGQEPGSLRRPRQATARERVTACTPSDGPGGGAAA
Test: Rat Brain Delta Opioid Receptor Binding Assay ([3H]DPDPE)
Settings: rat forebrain membranes, margin of error 10-20%, read-out: r Ki δ
pKi: −log10 of the molar value.
Measured quantity: pKi

{"columns": ["Structure smiles string", "Quantitative result"],
 "data": [
  ["CC(C)[C@H](NC(=O)[C@@H](N)Cc1cccc(C(N)=O)c1)c1nc(-c2ccccc2)c[nH]1", 6.74],
  ["Cc1cc(O)cc(C)c1C[C@H](N)C(=O)N(C)[C@@H](C)c1nc(Cc2ccccc2)c[nH]1", 8.35],
  ["C[C@@H](c1nc(-c2ccccc2)c[nH]1)N(Cc1ccccc1)C(=O)[C@@H](N)Cc1ccc(O)cc1", 7.06],
  ["COC(=O)c1cc(CN(C(=O)[C@@H](N)Cc2c(C)cc(C(N)=O)cc2C)[C@@H](C)c2nc(-c3ccccc3)c[nH]2)ccc1OC", 7.22]
]}

====

Target: human delta subtype 2 opioid receptor (Homo sapiens)
Sequence (P41143 whole entry): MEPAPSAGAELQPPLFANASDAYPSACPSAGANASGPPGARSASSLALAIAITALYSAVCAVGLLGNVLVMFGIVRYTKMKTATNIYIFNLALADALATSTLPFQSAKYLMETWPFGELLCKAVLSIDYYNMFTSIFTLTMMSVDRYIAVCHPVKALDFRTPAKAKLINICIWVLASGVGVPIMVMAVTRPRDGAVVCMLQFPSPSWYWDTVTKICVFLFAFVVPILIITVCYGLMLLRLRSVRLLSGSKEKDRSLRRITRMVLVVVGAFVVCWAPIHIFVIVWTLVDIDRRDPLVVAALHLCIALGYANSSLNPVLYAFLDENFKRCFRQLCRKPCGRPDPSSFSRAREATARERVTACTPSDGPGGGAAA
Test: Human Delta Opioid Receptor Binding Assay (CHO membranes, 3H-Naltrindole)
Conditions: read-out: hKi δ
Label T when Ki < 400 nM; otherwise F.

{"columns": ["Molecule", "Class assignment"],
 "data": [
  ["Cc1cc(O)cc(C)c1C[C@H](N)C(=O)N(C(C)C)[C@H](c1nc(-c2ccccc2)c[nH]1)C(C)C", "T"],
  ["Cc1cc(O)cc(C)c1C[C@H](N)C(=O)N(C(C)C)[C@@H](C)c1nc(-c2ccc(F)cc2)c[nH]1", "T"],
  ["Cc1cc(O)cc(C)c1CC(N)C(=O)Oc1cc(C)c(C[C@H](N)C(=O)N(C(C)C)[C@@H](CC(C)C)c2nc(-c3ccccc3)c[nH]2)c(C)c1 (stereo partly shown)", "F"],
  ["Cc1cc(O)cc(C)c1C[C@H](N)C(=O)N(Cc1nc(-c2ccccc2C(F)(F)F)c(C)[nH]1)C(C)C", "F"],
  ["Cc1cc(O)cc(C)c1C[C@H](N)C(=O)N(Cc1nc(-c2ccccc2Cl)c(C)[nH]1)C(C)C", "T"],
  ["Cc1cc(C(N)=O)cc(C)c1C[C@H](N)C(=O)N(Cc1ccccc1)[C@@H](C)c1nc(-c2ccc(C(F)(F)F)cc2)c(C)[nH]1", "T"],
  ["Cc1cc(O)cc(C)c1C[C@H](N)C(=O)N(C)Cc1nc(-c2ccccc2)c[nH]1", "T"],
  ["Cc1cc(O)cc(C)c1C[C@H](N)C(=O)N(Cc1ccccc1)[C@@H](Cc1ccccc1)c1nc(-c2ccccc2)c[nH]1", "F"],
  ["CC(=O)Oc1ccc(CN(C(=O)[C@@H](N)Cc2c(C)cc(O)cc2C)[C@@H](C)c2nc(-c3ccccc3)c[nH]2)cc1", "T"],
  ["Cc1cc(C(N)=O)cc(C)c1C[C@H](N)C(=O)N(Cc1ccccc1)[C@@H](C)c1nc(-c2cccc(F)c2)c[nH]1", "T"],
  ["C[C@H](c1nc(-c2ccccc2)c[nH]1)N(C)C(=O)[C@@H](N)Cc1ccc(C(N)=O)cc1", "F"],
  ["Cc1cc(O)cc(C)c1C[C@H](N)C(=O)N(Cc1nc(-c2cccc(C(=O)N(C)C)c2)c(C)[nH]1)C(C)C", "F"],
  ["Cc1cc(C(N)=O)cc(C)c1C[C@H](N)C(=O)N(CCc1ccccc1)[C@H](C)c1nc(-c2ccccc2)c[nH]1", "F"],
  ["Cc1cc(O)cc(C)c1C[C@H](N)C(=O)N(Cc1ccccc1)[C@@H](CC(C)C)c1nc(-c2ccccc2)c[nH]1", "F"],
  ["Cc1cc(O)cc(C)c1C[C@H](N)C(=O)N(Cc1nc(-c2cccnc2)c(C)[nH]1)C(C)C", "F"],
  ["Cc1cc(O)cc(C)c1C[C@H](N)C(=O)N(Cc1cccnc1)[C@@H](C)c1nc(-c2ccccc2)c[nH]1", "T"],
  ["Cc1cc(O)cc(C)c1C[C@H](N)C(=O)N(C(C)C)[C@@H](Cc1cccc(C#N)c1)c1nc(-c2ccccc2)c[nH]1", "T"],
  ["Cc1cc(O)cc(C)c1C[C@H](N)C(=O)N(Cc1nc(-c2cccc(F)c2)c(C)[nH]1)C(C)C", "T"],
  ["CC(C)N(C(=O)[C@@H](N)Cc1cccc(C(N)=O)c1)[C@@H](Cc1ccccc1)c1nc(-c2ccccc2)c[nH]1", "F"],
  ["Cc1cc(C(N)=O)cc(C)c1C[C@H](N)C(=O)N(CCCc1ccccc1)[C@@H](C)c1nc(-c2ccccc2)c[nH]1", "T"],
  ["Cc1cc(O)cc(C)c1C[C@H](N)C(=O)N(Cc1cccc(C#N)c1)[C@@H](C)c1nc(-c2ccccc2)c[nH]1", "T"],
  ["Cc1cc(O)cc(C)c1C[C@H](N)C(=O)N(Cc1ccccn1)[C@@H](C)c1nc(-c2ccccc2)c[nH]1", "T"],
  ["CC(C)N(C(=O)[C@@H](N)Cc1ccc(O)cc1)[C@@H](Cc1ccccc1)c1nc(-c2ccccc2)c[nH]1", "F"],
  ["Cc1cc(O)cc(C)c1C[C@H](N)C(=O)N(Cc1nc(-c2cccc(C(N)=O)c2)c(C)[nH]1)C(C)C", "T"],
  ["Cc1cc(O)cc(C)c1C[C@H](N)C(=O)N(Cc1ccccc1)[C@@H](C)c1nc(-c2ccccc2)c[nH]1", "T"],
  ["Cc1cc(O)cc(C)c1C[C@H](N)C(=O)N(Cc1nc(-c2ccc(C(N)=O)cc2)c(C)[nH]1)C(C)C", "T"],
  ["Cc1cc(O)cc(C)c1C[C@H](N)C(=O)N(Cc1nc(-c2cccc(C#N)c2)c(C)[nH]1)C(C)C", "T"]
]}

====

Target: human mu opioid receptor (Homo sapiens, UniProt P35372)
Construct: purchased Perkin Elmer RBHOMM400UA; host or cells: Chinese Hamster Ovary cells (recombinant expression)
Sequence (P35372 whole entry): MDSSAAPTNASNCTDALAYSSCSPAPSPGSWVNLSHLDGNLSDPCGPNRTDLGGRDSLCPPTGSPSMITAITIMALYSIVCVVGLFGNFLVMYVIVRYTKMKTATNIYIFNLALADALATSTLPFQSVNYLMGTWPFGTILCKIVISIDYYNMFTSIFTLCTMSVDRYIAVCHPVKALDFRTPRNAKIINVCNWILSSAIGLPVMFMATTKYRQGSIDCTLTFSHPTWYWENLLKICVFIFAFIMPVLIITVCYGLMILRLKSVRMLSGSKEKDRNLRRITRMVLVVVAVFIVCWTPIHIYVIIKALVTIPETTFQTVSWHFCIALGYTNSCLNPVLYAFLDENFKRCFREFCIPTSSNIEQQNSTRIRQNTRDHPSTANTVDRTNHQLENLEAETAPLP
Assay: Human Mu Opioid Receptor Binding Assay (CHO membranes, 3H-Damgo)
Conditions: hKi μ
pKi: −log10 of the molar value.
Measured quantity: pKi

{"columns": ["Molecule", "Measured quantity", "Quantitative result"],
 "data": [
  ["COc1ccc(CN(C(=O)[C@@H](N)Cc2c(C)cc(C(N)=O)cc2C)[C@@H](C)c2nc(-c3ccccc3)c[nH]2)cc1C(=O)O [Cpd 18]", "pKi", 8.77]
]}

====

Target: delta opioid receptor (Rattus norvegicus, UniProt P33533)
Construct: from tissue; host or cells: forebrain of male Wistar rats
Assay: Rat Brain Delta Opioid Receptor Binding Assay ([3H]DPDPE)
Settings: r Ki δ, rat forebrain membranes, margin of error 10-20%
pKi: −log10 of the molar value.
Measured quantity: pKi

{"columns": ["Molecule", "System under test", "Measured quantity", "Result"],
 "data": [
  ["COc1ccc(CN(C(=O)[C@@H](N)Cc2c(C)cc(C(N)=O)cc2C)[C@@H](C)c2nc(-c3ccccc3)c[nH]2)cc1C(=O)O [Cpd 18]", "delta opioid receptor (Rattus norvegicus, UniProt P33533)", "pKi", "7.84 to 9.42"]
]}

====

Target: human mu opioid receptor (Homo sapiens)
Construct: purchased Perkin Elmer RBHOMM400UA; host or cells: Chinese Hamster Ovary cells (recombinant expression)
Test: Human Mu Opioid Receptor Binding Assay (CHO membranes, 3H-Damgo)
Conditions: read-out: hKi μ
Label yes (1) when Ki < 9 nM; otherwise no (0).

{"columns": ["Structure smiles string", "Class assignment"],
 "data": [
  ["Cc1cc(O)cc(C)c1C[C@H](N)C(=O)N(Cc1nc(-c2cccc(C(N)=O)c2)c(C)[nH]1)C(C)C", "yes (1)"],
  ["COc1ccc(CN(C(=O)[C@@H](N)Cc2c(C)cc(C(N)=O)cc2C)[C@@H](C)c2nc(-c3ccccc3C#N)c[nH]2)cc1OC", "no (0)"],
  ["Cc1cc(O)cc(C)c1C[C@H](N)C(=O)N(C(C)C)[C@@H](CO)c1nc(-c2ccccc2)c[nH]1", "yes (1)"],
  ["COC(=O)c1ccc(CN(C(=O)[C@@H](N)Cc2ccc(C(N)=O)cc2)[C@@H](C)c2nc(-c3ccccc3)c[nH]2)o1", "yes (1)"],
  ["COc1ccc(CN(C(=O)[C@@H](N)Cc2c(C)cc(C(N)=O)cc2C)[C@@H](C)c2nc(-c3cccc(C#N)c3)c[nH]2)cc1OC", "no (0)"],
  ["Cc1cc(C(N)=O)cc(C)c1C[C@H](N)C(=O)N(CCc1ccccc1)[C@H](C)c1nc(-c2ccccc2)c[nH]1", "no (0)"],
  ["Cc1cc(O)cc(C)c1C[C@H](N)C(=O)N(Cc1nc(-c2cccc(C(=O)N(C)C)c2)c(C)[nH]1)C(C)C", "yes (1)"]
]}

====

Biological target: delta opioid receptor (Rattus norvegicus, UniProt P33533)
Construct: from tissue; host or cells: forebrain of male Wistar rats
Experiment: Rat Brain Delta Opioid Receptor Binding Assay ([3H]DPDPE)
Conditions: rat forebrain membranes, margin of error 10-20%, read-out: r Ki δ
Reported Ki values are given for each entry in this list.
Measured quantity: Ki (nM)

{"columns": ["Structure smiles string", "Measured quantity", "Quantitative result"],
 "data": [
  ["CC(C)C[C@@H](c1nc(-c2ccccc2)c[nH]1)N(C)C(=O)[C@@H](N)Cc1cccc(C(N)=O)c1", "Ki", 8870],
  ["COC(=O)c1ccc(CN(C(=O)[C@@H](N)Cc2c(C)cc(O)cc2C)[C@@H](C)c2nc(-c3ccccc3)c[nH]2)o1", "Ki", 0.11],
  ["C[C@@H](c1nc(-c2ccccc2)c[nH]1)N(C)C(=O)[C@@H](N)Cc1ccc(S(N)(=O)=O)cc1", "Ki", 360],
  ["Cc1cc(O)cc(C)c1C[C@H](N)C(=O)N[C@@H](COCc1ccccc1)c1nc(-c2ccccc2)c[nH]1", "Ki", 166],
  ["COc1ccc(CN(C(=O)[C@@H](N)Cc2c(C)cc(O)cc2C)[C@@H](C)c2nc(-c3ccccc3)c[nH]2)c2ccccc12", "Ki", 0.4],
  ["N[C@@H](Cc1ccc(O)cc1)C(=O)N(Cc1nc(-c2ccccc2)c[nH]1)CC1CC1", "Ki", 182],
  ["CC(C)N(C(=O)[C@@H](N)Cc1ccc(O)cc1)[C@@H](C)c1nc(-c2ccccc2)c[nH]1", "Ki", 112]
]}
